Source of measurements: patent US20260092074A1

# target-or-test-system: human CYP11B1 (Homo sapiens)
# Sequence (P15538 25-503): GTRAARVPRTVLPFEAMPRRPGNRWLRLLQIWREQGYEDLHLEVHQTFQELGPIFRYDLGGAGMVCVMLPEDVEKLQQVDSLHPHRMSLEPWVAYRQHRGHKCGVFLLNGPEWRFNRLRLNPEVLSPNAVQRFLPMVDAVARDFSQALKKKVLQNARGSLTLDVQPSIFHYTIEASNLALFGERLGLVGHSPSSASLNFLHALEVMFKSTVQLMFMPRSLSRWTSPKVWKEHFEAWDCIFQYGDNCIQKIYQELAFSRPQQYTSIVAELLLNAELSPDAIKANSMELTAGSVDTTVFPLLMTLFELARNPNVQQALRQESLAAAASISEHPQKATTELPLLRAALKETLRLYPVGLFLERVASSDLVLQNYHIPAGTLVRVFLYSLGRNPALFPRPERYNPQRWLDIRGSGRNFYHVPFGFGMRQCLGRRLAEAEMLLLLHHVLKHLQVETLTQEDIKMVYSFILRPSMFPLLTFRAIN
# protocol: Inhibition of hCYP11B1 in transfected V79 cells
# condition-description: hamster V79 cells expressing human CYP11B1; substrate 11-deoxycortisol 200 nM
pIC50: −log10 of the molar value.
Please enter t where pIC50 is greater than or equal to 7, and f where it is lower.

Answered examples (10):
molecule | cat
N#Cc1ccc2[nH]c(-c3cncc4c3CCN4C(=O)C3CN(Cc4cccc(F)c4)C3)cc2c1 [C81] | f
O=C(c1ccccc1F)N1CCc2c(-c3ccoc3)cncc21 [C56] | f
N#Cc1ccc(-c2cncc3c2OCCN3S(=O)(=O)C2CN(C(=O)c3cccc(C#N)c3)C2)cc1 [O110] | f
O=C(C1CN(Cc2cccc(F)c2)C1)N1CCOc2c(-c3cc4cc(Cl)ccc4o3)cncc21 [O95] | f
N#Cc1ccc(-c2cncc3c2SCCN3S(=O)(=O)c2cccc3ccccc23)cc1 [S22] | t
O=C(C1CN(Cc2cccc(F)c2)C1)N1CCOc2c(-c3ccc4nccn4c3)cncc21 [O90] | f
N#Cc1ccc(-c2cncc3c2CCN3S(=O)(=O)c2ccc(Cl)cc2)cc1 [C13] | t
COc1cccc(C(=O)N2CCSc3c(-c4ccc(C#N)cc4)cncc32)c1 [S96] | f
N#Cc1ccc(-c2cncc3c2SCCN3Cc2cccc(F)c2)cc1 [S1] | f
N#Cc1ccc(-c2cncc3c2OCCN3C(=O)[C@H]2CCN(Cc3cccc(F)c3)C2)cc1 [O104] | f

q: Given N#Cc1ccc(-c2cncc3c2OCCN3C(=O)c2cccc(F)c2)cc1 [O20] , state whether its pIC50 is at least 7.
a: f

q: Given N#Cc1ccc(-c2cncc3c2ccn3C(=O)c2ccccc2F)cc1 [E28] , state whether its pIC50 is at least 7.
a: t

q: Given N#Cc1ccc(-c2cncc3c2SCCN3S(=O)(=O)C2CN(Cc3cccc(F)c3)C2)cc1 [S83] , state whether its pIC50 is at least 7.
a: t

q: Given N#Cc1ccc(-c2cncc3c2OCCN3C(=O)C2CN(S(=O)(=O)c3ccc(F)cc3)C2)cc1 [O60] , state whether its pIC50 is at least 7.
a: t

q: Given COc1ccc(S(=O)(=O)N2CCc3c(-c4ccc(C#N)cc4)cncc32)cc1 [C3] , state whether its pIC50 is at least 7.
a: t

q: Given N#Cc1ccc(-c2cncc3c2SCCN3S(=O)(=O)c2cccs2)cc1 [S24] , state whether its pIC50 is at least 7.
a: t
